Biological target: CDK2/Cyclin E1(14-475) (Homo sapiens, UniProt P24941)
Assay: Caliper LabChip EZ Reader mobility shift assay, inhibition of CDK2/Cyclin E1 activity
Format: biochemical
Settings: class symbols A-D
pIC50: −log10 of the molar value.
I'd appreciate it if you could supply pIC50 values for the items below.

Example entries begin here.
INSERT INTO results (compound, measuredattribute, result) VALUES
  ('CNC(=O)[C@@H](NC(=O)C1CN(C(=O)Cc2c[nH]c3cc(Cl)ccc23)CC2CN(C(=O)c3ccc(OC(C)C)c(OC)c3)CC21)[C@H](C)OCC1CCCCC1 (some centres unmarked) [I-107]', 'pIC50', '≥ 6.30'),
  ('CNC(=O)[C@H](CCCc1ccccc1)NC(=O)C1CN(C(=O)Cc2c[nH]c3cc(Cl)ccc23)CC2CN(C(=O)c3ccc4c(c3)CNC4=O)CC21 (some centres unmarked) [I-45]', 'pIC50', '< 5.00'),
  ('CNC(=O)[C@H](CCCc1ccc(C(F)(F)F)cc1)NC(=O)C1CN(C(=O)Cc2c[nH]c3cc(Cl)ccc23)CC2CN(C(=O)c3ccc(OC(C)C)c(OC)c3)CC21 (some centres unmarked) [I-133]', 'pIC50', '5.30 to 6.30'),
  ('CNC(=O)[C@H](CCCc1ccccc1)NC(=O)C1CN(C(=O)Cn2cnc3cc(Cl)ccc32)CC2CN(C(=O)c3ccc(OC(C)C)c(OC)c3)CC21 (some centres unmarked) [I-156]', 'pIC50', '5.30 to 6.30');

State the recorded pIC50 for every item in the following list.
1. CNC(=O)[C@H](CCCc1ccccc1)NC(=O)C1CN(C(=O)Cc2c[nH]c3ccc(C)cc23)CC2CN(C(=O)c3ccc(OC(C)C)c(OC)c3)CC21 (some centres unmarked) [I-219]
2. CNC(=O)[C@H](CCCc1cccc(O)c1)NC(=O)C1CN(C(=O)Cc2c[nH]c3cc(Cl)ccc23)CC2CN(C(=O)c3ccc(OC(C)C)c(OC)c3)CC21 (some centres unmarked) [I-128]
3. CNC(=O)[C@H](CCCc1ccccc1)NC(=O)C1CN(C(=O)Cc2cn(CCOC)c3ccccc23)CC2CN(C(=O)c3ccc(OC(C)C)c(OC)c3)CC21 (some centres unmarked) [I-218]
4. CNC(=O)[C@H](CCCc1ccccc1)NC(=O)C1CN(C(=O)c2coc(Cl)n2)CC2CN(C(=O)c3ccc(OC(C)C)c(OC)c3)CC21 (single isomer, unassigned) [I-233]
5. CNC(=O)[C@@H](CCCC1CCC(C(F)(F)F)CC1)NC(=O)C1CN(C(=O)Cc2c[nH]c3cc(Cl)ccc23)CC2CN(C(=O)c3ccc(OC(C)C)c(OC)c3)CC21 (some centres unmarked) [I-104]
6. CNC(=O)[C@H](NC(=O)C1CN(C(=O)Cc2c[nH]c3cc(Cl)ccc23)CC2CN(C(=O)c3ccc(OC(C)C)c(OC)c3)CC21)[C@@H](C)OCc1ccccc1 (some centres unmarked) [I-92]
7. CNC(=O)[C@H](CCCc1ccccc1)NC(=O)C1CN(C(=O)Cc2c[nH]c3cc(Cl)ccc23)CC2CN(C(=O)c3ccc(OC(F)(F)F)c(OC)c3)CC21 (some centres unmarked) [I-82]

1. 5.30 to 6.30
2. 5.00 to 5.30
3. < 5.00
4. < 5.00
5. < 5.00
6. < 5.00
7. 5.30 to 6.30
